Property: T/C; scope: individual compounds
# Test system: L1210 leukemia ip in BDF1 mice, survival T/C
# MEASUREMENT PROTOCOL: NCI In Vivo Anticancer Drug Screen. Data for tumor model L1210 Leukemia (intraperitoneal) in B6D2F1 (BDF1) mice
# PARTICULARS: endpoint: mean survival time; dose: 150.0 mg/kg/injection; schedule: Q01DX001 (ip); vehicle: saline; higher = longer survival
# Experimental: The antitumor activity of compounds was measured in mice bearing transplantable tumors. Survival or tumor size were measured and the results are expressed as the measurement made in the treated group (T) divided by the measurement made in the vehicle treated control group (C). The tumor model used in this assay is L1210 Leukemia (intraperitoneal) in B6D2F1 (BDF1) mice
Toxic doses and inconclusive results are not listed.
QUANTITY NAME: T/C

INSERT INTO assay_data (compound, value_reported) VALUES
  ('C/C=C/CC1(C(C)C)C(=O)NC(=O)NC1=O', '104 % of control'),
  ('O=CN/N=C/c1cccc([N+](=O)[O-])c1', '95 % of control'),
  ('Cc1ccc(SCCCN)cc1', '94 % of control'),
  ('CCC1NCCc2cc(OC)c(O)cc21 (stereo not given)', '100 % of control'),
  ('CC1CCC2N(C1)CC1C3(O)CC45OC6(O)C(O)CCC4(C)C6CCC5C3(O)CC(O)C1(O)C2(C)O (stereo not given)', '105 % of control'),
  ('Cc1ccc(N=Nc2c(C)nc(N)nc2C)cc1', '91 % of control'),
  ('NC(=O)OCC(N)C(=O)O (stereo not given)', '94 % of control'),
  ('CNC(=O)Nc1c(O)nc(N)[nH]c1=O', '105 % of control'),
  ('CN(C)CCCn1nc(-c2ccccc2)oc1=O', '87 % of control'),
  ('COc1cc(CCN(C)C)cc(OC)c1OC', '101 % of control');

* * *

# Tested on: L1210 leukemia ip in BDF1 mice, survival T/C
# MEASUREMENT PROTOCOL: NCI In Vivo Anticancer Drug Screen. Data for tumor model L1210 Leukemia (intraperitoneal) in B6D2F1 (BDF1) mice
# PARTICULARS: endpoint: mean survival time; dose: 25.0 mg/kg/injection; schedule: Q01DX001 (ip); vehicle: saline with Tween-80; higher = longer survival
Inconclusive results and toxic doses are left out.
Property: T/C; scope: individual molecules
QUANTITY NAME: T/C

INSERT INTO assay_data (smiles_structure, target_desc, value_reported) VALUES
  ('N#CCN(CC#N)CCCN(CC#N)CC#N', 'L1210 leukemia ip in BDF1 mice, survival T/C', '96 % of control'),
  ('NC1=NC=NCN1c1ccc(N)cc1', 'L1210 leukemia ip in BDF1 mice, survival T/C', '96 % of control'),
  ('N#C/C(=C1/N=C(N)NC1=O)c1ccc(Cl)cc1', 'L1210 leukemia ip in BDF1 mice, survival T/C', '92 % of control'),
  ('CCc1ccc(-n2cnc3c(=O)[nH]c(N)nc32)cc1', 'L1210 leukemia ip in BDF1 mice, survival T/C', '86 % of control');

* * *

# Tested on: L1210 leukemia ip in BDF1 mice, survival T/C
# MEASUREMENT PROTOCOL: NCI In Vivo Anticancer Drug Screen. Data for tumor model L1210 Leukemia (intraperitoneal) in B6D2F1 (BDF1) mice
# PARTICULARS: endpoint: mean survival time; dose: 50.0 mg/kg/injection; schedule: Q01DX001 (ip); vehicle: saline; higher = longer survival
Toxic doses and inconclusive results are not listed.
Property: T/C; scope: individual molecules
QUANTITY NAME: T/C

INSERT INTO results (molecule, value_reported) VALUES
  ('C(=N\N(CCCCN(/N=C/c1ccccc1)c1ccccc1)c1ccccc1)/c1ccccc1', '96 % of control'),
  ('CN(C)c1ccc2nc3ccc(=[N+](C)C)cc-3sc2c1', '97 % of control'),
  ('CC(C)CCS(=O)(=O)O', '104 % of control'),
  ('OCC(F)(F)F', '98 % of control'),
  ('O=C1OC(=O)c2ccc([N+](=O)[O-])c3c(C(=O)O)ccc1c23', '101 % of control'),
  ('COc1ccccc1CN1CCCN(Cc2ccccc2OC)C1c1cccc(OC)c1O', '95 % of control'),
  ('Cn1c(=O)c2[nH]c(-c3ccc([N+](=O)[O-])cc3)nc2n(C)c1=O', '98 % of control'),
  ('COc1ccc(/C=[N+](\[O-])c2ccccc2)cc1', '110 % of control'),
  ('O=S(=O)(CC(O)(c1ccccc1)c1ccccc1)CC(O)(c1ccccc1)c1ccccc1', '93 % of control'),
  ('COc1ccc(C2(OC)Oc3ccccc3C(=O)C2(O)OC)cc1OC (stereo not drawn)', '105 % of control'),
  ('CC12CCC3c4ccc(Cc5ccc([N+](=O)[O-])cc5)cc4CCC3C1CCC2=O (stereo not drawn)', '105 % of control'),
  ('O=C(CCCC(=O)N/N=C/c1ccccc1C(=O)O)N/N=C\c1ccccc1C(=O)O', '104 % of control'),
  ('CC(C)=NNCCO', '100 % of control');
